conditions: PAMPA-BBB, PBS:EtOH 70:30; mean ± SD of three independent experiments
Below, each entry is listed with its recorded Pe.

{"compound": "NCc1ccc(-c2nc3ccc(Cl)cc3c3c2CCCCN3)cc1 [Compound 32]", "measured-quantity": "Pe", "recorded-measurement": "11.6 ± 0.2 10^−6 cm s^−1"}
{"compound": "N#Cc1ccc([C@H]2Nc3ccc(Cl)cc3[C@@H]3OCCC[C@H]23)cc1 [Compound 37]", "measured-quantity": "Pe", "recorded-measurement": "7.0 ± 0.7 10^−6 cm s^−1"}

-- ask Give recorded Pe. N#Cc1ccc(-c2nc3ccc(Cl)cc3c3c2CCCCN3)cc1 [Compound 28]
-- reply 20.0 ± 1.1 10^−6 cm s^−1

-- ask Give recorded Pe. NCc1ccc(-c2nc3ccc(Cl)cc3c3c2CCCN3Cc2ccccc2)cc1 [Compound 3]
-- reply 7.4 ± 0.2 10^−6 cm s^−1

-- ask Give recorded Pe. NCc1ccc(-c2nc3ccc(Cl)cc3c3c2CCN3)cc1 [Compound 30]
-- reply 7.4 ± 2.6 10^−6 cm s^−1

====

assay: in vitro; details: rat, rat skeletal muscle L6 cells, SILi: selectivity index as the ratio of cytotoxic to anti-L. infantum IC50 values, L6 IC50 / L. infantum IC50
Threshold check on selectivity ratio at 6 days: at or above 0.8 gives MET, strictly below gives NOT MET.

{"compound": "NCc1ccc(-c2nc3ccc(Cl)cc3c3c2CCCCN3)cc1 [Compound 32]", "class-label": "MET"}

-- ask Quick check, selectivity ratio at 6 days >= 0.8? N#Cc1ccc(-c2nc3ccc(Cl)cc3c3c2CCCN3)cc1 [Compound 27]
-- reply MET

-- ask Quick check, selectivity ratio at 6 days >= 0.8? NCc1ccc(-c2nc3ccc(Cl)cc3c3c2CCN3)cc1 [Compound 30]
-- reply NOT MET

-- ask Quick check, selectivity ratio at 6 days >= 0.8? N#Cc1ccc(-c2nc3cc(Cl)ccc3cc2CCCN)cc1 [Compound 35]
-- reply MET

-- ask Quick check, selectivity ratio at 6 days >= 0.8? NCc1ccc(-c2nc3ccc(Cl)cc3c3c2CCCN3Cc2ccccc2)cc1 [Compound 3]
-- reply NOT MET

-- ask Quick check, selectivity ratio at 6 days >= 0.8? NCc1ccc(-c2nc3cc(Cl)ccc3c3c2CCCN3)cc1 [Compound 33]
-- reply NOT MET

====

Below, each entry is listed with its recorded pIC50.
tested on: L. infantum strain MCAN/ES/92/BCN722 promastigote forms; assay: Activity against promastigotes of L. infantum (acid phosphatase); type: cell-based, Leishmania infantum; conditions: Leishmania infantum, promastigote form; mean ± SD of duplicate experiments performed at least twice
Lab note — pIC50 values are minus log10 of concentrations in M.

Study these solved cases before continuing.
{"compound": "OCCCc1cc2cc(Cl)ccc2nc1-c1cccs1 [Compound 45]", "recorded-measurement": 4.43}
{"compound": "N#CCCc1cc2cc(Cl)ccc2nc1-c1cccs1 [Compound 47]", "recorded-measurement": 4.63}
{"compound": "N#Cc1ccc(-c2nc3cc(Cl)ccc3c3c2CCCN3)cc1 [Compound 29]", "recorded-measurement": 4.72}

-- ask Give recorded pIC50. NCc1ccc(-c2nc3cc(Cl)ccc3c3c2CCCN3)cc1 [Compound 33]
-- reply 4.89

-- ask Give recorded pIC50. N#Cc1ccc(-c2nc3ccc(Cl)cc3c3c2CCCCN3)cc1 [Compound 28]
-- reply 4.86

-- ask Give recorded pIC50. OCCCc1cc2cc(Cl)ccc2nc1-c1ccco1 [Compound 44]
-- reply 4.71

-- ask Give recorded pIC50. Clc1ccc2nc(-c3ccco3)c3c(c2c1)OCCC3 [Compound 42]
-- reply 4.42

-- ask Give recorded pIC50. NCc1ccc(-c2nc3ccc(Cl)cc3c3c2CCCO3)cc1 [Compound 39]
-- reply 5.21

This collection of values is drawn from paper PMC4638191.
